- Test system: Helios (IKZF2) (Homo sapiens, UniProt Q96SW2+Q9UKS7)
- Sequence (Q9UKS7 whole entry): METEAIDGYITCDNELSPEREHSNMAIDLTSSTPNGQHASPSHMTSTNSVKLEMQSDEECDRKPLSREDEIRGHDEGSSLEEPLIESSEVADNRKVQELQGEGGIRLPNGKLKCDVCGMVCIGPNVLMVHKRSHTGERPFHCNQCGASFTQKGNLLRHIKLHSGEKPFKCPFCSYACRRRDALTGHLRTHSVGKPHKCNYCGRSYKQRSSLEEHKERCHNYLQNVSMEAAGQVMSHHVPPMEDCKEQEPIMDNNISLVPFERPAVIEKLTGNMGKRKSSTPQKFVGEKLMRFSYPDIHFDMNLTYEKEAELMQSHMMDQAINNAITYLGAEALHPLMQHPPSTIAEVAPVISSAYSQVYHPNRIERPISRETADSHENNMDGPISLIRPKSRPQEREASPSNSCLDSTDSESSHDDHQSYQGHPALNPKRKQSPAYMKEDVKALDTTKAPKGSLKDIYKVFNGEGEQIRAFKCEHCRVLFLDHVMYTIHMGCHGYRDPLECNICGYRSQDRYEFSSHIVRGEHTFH
- Sequence (Q96SW2 whole entry): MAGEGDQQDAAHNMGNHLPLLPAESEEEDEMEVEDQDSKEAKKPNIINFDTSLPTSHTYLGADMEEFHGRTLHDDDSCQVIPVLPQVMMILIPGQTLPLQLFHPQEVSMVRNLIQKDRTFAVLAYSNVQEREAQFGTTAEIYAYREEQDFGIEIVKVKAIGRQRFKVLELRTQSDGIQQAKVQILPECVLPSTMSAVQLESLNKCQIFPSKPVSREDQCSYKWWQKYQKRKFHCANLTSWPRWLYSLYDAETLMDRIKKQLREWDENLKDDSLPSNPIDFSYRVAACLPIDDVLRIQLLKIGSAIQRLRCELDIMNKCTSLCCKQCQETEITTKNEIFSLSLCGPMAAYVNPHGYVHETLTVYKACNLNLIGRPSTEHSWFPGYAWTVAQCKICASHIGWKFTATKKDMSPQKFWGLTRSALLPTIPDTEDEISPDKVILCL
- Sequence (Q16531 whole entry partner): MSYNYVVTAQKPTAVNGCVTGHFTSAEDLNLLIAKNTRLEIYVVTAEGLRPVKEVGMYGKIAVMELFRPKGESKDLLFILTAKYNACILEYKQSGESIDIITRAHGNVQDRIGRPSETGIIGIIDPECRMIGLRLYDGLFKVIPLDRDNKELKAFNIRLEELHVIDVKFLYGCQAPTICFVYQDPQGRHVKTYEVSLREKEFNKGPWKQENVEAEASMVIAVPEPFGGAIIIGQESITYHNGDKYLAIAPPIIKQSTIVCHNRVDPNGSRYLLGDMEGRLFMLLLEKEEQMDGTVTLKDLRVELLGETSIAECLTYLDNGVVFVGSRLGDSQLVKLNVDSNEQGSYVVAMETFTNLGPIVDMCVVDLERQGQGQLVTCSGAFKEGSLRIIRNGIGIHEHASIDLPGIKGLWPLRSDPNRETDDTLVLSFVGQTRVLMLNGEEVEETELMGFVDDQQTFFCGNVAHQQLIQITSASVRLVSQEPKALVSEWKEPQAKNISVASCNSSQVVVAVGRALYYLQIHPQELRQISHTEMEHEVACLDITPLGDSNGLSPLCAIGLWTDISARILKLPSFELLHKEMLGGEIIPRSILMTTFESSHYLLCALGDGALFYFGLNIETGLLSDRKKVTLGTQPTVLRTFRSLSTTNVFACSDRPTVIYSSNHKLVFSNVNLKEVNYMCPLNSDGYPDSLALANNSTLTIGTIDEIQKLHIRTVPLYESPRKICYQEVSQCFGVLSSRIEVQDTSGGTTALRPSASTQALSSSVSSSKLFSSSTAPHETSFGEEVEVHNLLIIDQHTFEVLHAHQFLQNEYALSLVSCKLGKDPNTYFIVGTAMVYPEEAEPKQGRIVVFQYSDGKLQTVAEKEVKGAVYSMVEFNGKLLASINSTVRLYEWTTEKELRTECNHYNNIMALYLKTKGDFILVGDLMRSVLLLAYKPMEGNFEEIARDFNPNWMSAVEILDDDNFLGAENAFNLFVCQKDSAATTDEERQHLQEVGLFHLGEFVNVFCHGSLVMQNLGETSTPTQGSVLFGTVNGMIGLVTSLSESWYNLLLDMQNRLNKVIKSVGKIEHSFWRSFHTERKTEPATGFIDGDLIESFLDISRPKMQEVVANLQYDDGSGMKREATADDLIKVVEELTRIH
- Method notes: Screening of Helios protein degraders using Nano-Glo HiBiT cell line (HiBiT-IKZF2)
- Type: cell-based
- Assay setup: compound 1 μM, 6 hours, HiBiT-Helios knock-in Jurkat cells; read-out: HiBiT-IKZF2 Residual amount of Helios (%) 1 μM
Endpoint name: remaining activity at 1 µM (%)

// known answers, use as guide
| Molecule | Test system | U | remaining activity at 1 µM |
| --- | --- | --- | --- |
| O=C1CCC(N2Cc3cc(C4CCN(C(=O)c5[nH]c6ccccc6c5Cl)CC4)ccc3C2=O)C(=O)N1 (stereo not shown) [Compound 22] | Helios (IKZF2) (Homo sapiens, UniProt Q96SW2+Q9UKS7) | % | 64.5 |
| Cc1c(C(=O)N2CC=C(c3ccc4c(c3)CN(C3CCC(=O)NC3=O)C4=O)CC2)[nH]c2cc(Cl)ccc12 (stereo not shown) [Compound 70] | Helios (IKZF2) (Homo sapiens, UniProt Q96SW2+Q9UKS7) | % | 94.8 |
| O=C1CCC(N2Cc3cc(C4CCN(C(=O)c5cc6cccc(Cl)c6[nH]5)CC4)ccc3C2=O)C(=O)N1 (stereo not shown) [Compound 8] | Helios (IKZF2) (Homo sapiens, UniProt Q96SW2+Q9UKS7) | % | 99.5 |
| O=C1CCC(N2Cc3cc(C=C4CCN(C(=O)c5cc6ccc(Cl)cc6[nH]5)CC4)ccc3C2=O)C(=O)N1 (stereo not shown) [Compound 26] | Helios (IKZF2) (Homo sapiens, UniProt Q96SW2+Q9UKS7) | % | 96 |
| O=C1CCC(N2Cc3cc(C=C4CCN(C(=O)c5c[nH]c6ccccc56)CC4)ccc3C2=O)C(=O)N1 (stereo not shown) [Compound 25] | Helios (IKZF2) (Homo sapiens, UniProt Q96SW2+Q9UKS7) | % | 93.6 |

(A) COc1cccc2[nH]c(C(=O)N3CCC(c4ccc5c(c4)CN(C4CCC(=O)NC4=O)C5=O)CC3)cc12 (stereo not shown) [Compound 11]
(B) Cc1ccc2c(C)c(C(=O)N3CCC(c4ccc5c(c4)CN(C4CCC(=O)NC4=O)C5=O)CC3)[nH]c2c1 (stereo not shown) [Compound 69]
Challenge: Of A and B , whose reported remaining activity at 1 µM is numerically smaller? Answer = label.
Response given: B

###

- Test system: Helios (IKZF2) (Homo sapiens, UniProt Q96SW2+Q9UKS7)
- Method notes: Screening of Helios protein degraders using Nano-Glo HiBiT cell line (HiBiT-IKZF2)
- Type: cell-based
- Assay setup: compound 10 μM, 6 hours, HiBiT-Helios knock-in Jurkat cells; read-out: HiBiT-IKZF2 Residual amount of Helios (%) 10 μM
Endpoint name: remaining activity at 10 µM (%)

Completed entries (count: 5):
| Compound | remaining activity at 10 µM / % |
| --- | --- |
| O=C1CCC(N2Cc3cc(C=C4CCN(C(=O)c5c[nH]c6ccccc56)CC4)ccc3C2=O)C(=O)N1 (stereo not shown) | 87.5 |
| Cc1c(C(=O)N2CCC(c3ccc4c(c3)CN(C3CCC(=O)NC3=O)C4=O)CC2)[nH]c2cc(Br)ccc12 (stereo not shown) | 8.67 |
| Cc1c(C(=O)N2C3CCC2CC(c2ccc4c(c2)CN(C2CCC(=O)NC2=O)C4=O)C3)[nH]c2cc(Cl)ccc12 (stereo not shown) | 5.2 |
| Cc1c(C(=O)N2CCC(c3ccc4c(c3)CN(C3CCC(=O)NC3=O)C4=O)CC2)[nH]c2cc(Cl)c(O)cc12 (stereo not shown) | 20.7 |
| Cc1c(C(=O)N2CCC(c3ccc4c(c3)CN(C3CCC(=O)NC3=O)C4=O)CC2)[nH]c2cc([N+](=O)[O-])c(O)cc12 (stereo not shown) | 9.9 |

(1) Cc1cc2c(C)c(C(=O)N3CCC(c4ccc5c(c4)CN(C4CCC(=O)NC4=O)C5=O)CC3)[nH]c2cc1[N+](=O)[O-] (stereo not shown)
(2) O=C1CCC(N2Cc3cc(C4CCN(C(=O)c5[nH]c6ccccc6c5CN5CCOCC5)CC4)ccc3C2=O)C(=O)N1 (stereo not shown)
Challenge: Sorting by remaining activity at 10 µM in descending order, would 1 or 2 appear first? Reply with the label of the item you choose.
Response given: 2

###

- Test system: Helios (IKZF2) (Homo sapiens, UniProt Q96SW2+Q9UKS7)
- Method notes: Screening of Helios protein degraders using Nano-Glo HiBiT cell line (HiBiT-IKZF2)
- Type: cell-based
- Assay setup: compound 10 μM, 6 hours, HiBiT-Helios knock-in Jurkat cells; read-out: HiBiT-IKZF2 Residual amount of Helios (%) 10 μM
Endpoint name: remaining activity at 10 µM (%)

(I) Cc1c(C(=O)N2CCC(c3ccc4c(c3)CN(C3CCC(=O)NC3=O)C4=O)CC2)[nH]c2cc(Cl)c(F)cc12 (stereo not drawn)
(II) O=C1CCC(N2Cc3cc(C4CCN(C(=O)c5cc6ncc(Cl)cc6[nH]5)CC4)ccc3C2=O)C(=O)N1 (stereo not drawn)
(III) Cc1c(C(=O)N2CCC(=Cc3ccc4c(c3)CN(C3CCC(=O)NC3=O)C4=O)CC2)[nH]c2ccccc12 (stereo not drawn)
Challenge: From the items above, give an ordering by remaining activity at 10 µM that starts at the lowest reported number. Form entry: ranked labels (order as requested).
Response given: I, II, III
(I: 26.2%, II: 58.2%, III: 91.7%)

###

- Test system: Helios (IKZF2) (Homo sapiens, UniProt Q96SW2+Q9UKS7)
- Method notes: Screening of Helios protein degraders using Nano-Glo HiBiT cell line (HiBiT-IKZF2)
- Format: cell-based
- Assay setup: compound 10 μM, 6 hours, HiBiT-Helios knock-in Jurkat cells; read-out: HiBiT-IKZF2 Residual amount of Helios (%) 10 μM
Endpoint name: remaining activity at 10 µM (%)

See these solved cases before continuing.
| Molecule | U | remaining activity at 10 µM |
| --- | --- | --- |
| O=C1CCC(N2Cc3cc(C4CCN(Cc5ccccc5)CC4)ccc3C2=O)C(=O)N1 (stereo not shown) [Comparative Substance 1 (DKY709), reference compound] | % | 40 |
| O=C1CCC(N2Cc3cc(C4CCN(C(=O)c5[nH]c6ccccc6c5Br)CC4)ccc3C2=O)C(=O)N1 (stereo not shown) | % | 40.6 |
| Cc1c(C(=O)N2CCC(c3ccc4c(c3)CN(C3CCC(=O)NC3=O)C4=O)CC2)[nH]c2cc(Cl)ccc12 (stereo not shown) | % | 5.5 |
| CC(=O)Nc1ccc2c(C)c(C(=O)N3CCC(c4ccc5c(c4)CN(C4CCC(=O)NC4=O)C5=O)CC3)[nH]c2c1 (stereo not shown) | % | 27.8 |
| O=C1CCC(N2Cc3cc(C4CCN(C(=O)c5cc6cc(F)ccc6[nH]5)CC4)ccc3C2=O)C(=O)N1 (stereo not shown) | % | 96.6 |

(P) O=C1CCC(N2Cc3cc(C=C4CCN(C(=O)c5cc6ccccc6[nH]5)CC4)ccc3C2=O)C(=O)N1 (stereo not shown)
(Q) Cc1c(C(=O)N2CCC(c3cc4c(cc3F)C(=O)N(C3CCC(=O)NC3=O)C4)CC2)[nH]c2cc(Cl)ccc12 (stereo not shown)
Challenge: Recorded remaining activity at 10 µM values differ for P and Q ; which one is higher? Response format: the label of the selected entry.
Response given: P

###

- Test system: Helios (IKZF2) (Homo sapiens, UniProt Q96SW2+Q9UKS7)
- Method notes: Screening of Helios protein degraders using Nano-Glo HiBiT cell line (HiBiT-IKZF2)
- Type: cell-based
- Assay setup: compound 10 μM, 6 hours, HiBiT-Helios knock-in Jurkat cells; read-out: HiBiT-IKZF2 Residual amount of Helios (%) 10 μM
Endpoint name: remaining activity at 10 µM (%)

(P) CC1CC(c2ccc3c(c2)CN(C2CCC(=O)NC2=O)C3=O)CCN1C(=O)c1cc2ccc(Cl)cc2[nH]1 (centres unmarked)
(Q) O=C1CCC(N2Cc3cc(C4CCN(C(=O)c5cc6ccc(F)cc6[nH]5)CC4)ccc3C2=O)C(=O)N1 (centres unmarked)
Challenge: Which item exceeds the other in remaining activity at 10 µM, P or Q ? Please indicate the selected item by its label.
Response given: Q
(Q: 98.6%, P: 25.4%)

(P) COc1cc2c(C)c(C(=O)N3CCC(c4ccc5c(c4F)CN(C4CCC(=O)NC4=O)C5=O)CC3)[nH]c2cc1Cl (centres unmarked)
(Q) COc1ccc2cc(C(=O)Nc3ccc4c(c3)CN(C3CCC(=O)NC3=O)C4=O)ccc2c1 (centres unmarked) [Comparative Substance 4, reference compound]
Challenge: Please indicate which has the smaller reported remaining activity at 10 µM: P , or Q . // respond with label for picked entry
Response given: P
(P: 7.5%, Q: 56.2%)

(a) O=C1CCC(N2Cc3cc(C4CCN(C(=O)c5cc6cccc(F)c6[nH]5)CC4)ccc3C2=O)C(=O)N1 (centres unmarked)
(b) Cc1c(C(=O)N2CCC(c3ccc4c(c3)CN(C3CCC(=O)NC3=O)C4=O)CC2)[nH]c2cc(C(C)(C)C)ccc12 (centres unmarked)
(c) Cc1c(C(=O)N2CCC(c3ccc4c(c3)CN(C3CCC(=O)NC3=O)C4=O)CC2)[nH]c2cc(C#N)ccc12 (centres unmarked)
Challenge: Arrange by remaining activity at 10 µM, high to low. Give the order by naming the labels one after another as requested.
Response given: a, b, c
(a: 82.7%, b: 31.3%, c: 10.8%)

src = patent US20260216164A1
